assay: VP16 transactivation inhibitors, counter-screen for SRC1 inhibitor project, cell-based, luminescence, high throughput (AID 588824); details: cell-based VP16 transactivation luciferase luminescence; at 3.6 µM; stronger effect = higher value
measure: inhibition (%)
Dear colleague, please return just the value in %, with no unit written.

Consider the worked cases shown below.
INSERT INTO assay_data (molecule, measure, measured_result) VALUES
  ('Cc1cc(C(=O)NNc2ccc(F)cc2)no1', 'inhibition', 8.26),
  ('Cc1cc(=O)[nH]c(NN=Cc2cc(Br)ccc2O)n1', 'inhibition', 64.8),
  ('Cc1nc(N)c(C#N)c(-c2cccnc2)c1C', 'inhibition', 26.5),
  ('CC[n+]1ccccc1/C=C1\Sc2ccc(C)cc2N1C', 'inhibition', 67.7),
  ('CCc1ccc2[nH]c3nc(N/N=C/c4cccc(O)c4)nnc3c2c1', 'inhibition', 59.5);

Please give the measured inhibition for this molecule: c1csc(C2=Nn3c(nnc3-c3ccncc3)SC2)c1 50.8

Which inhibition is listed for O=C(CSc1nc2ccccc2[nH]1)Nc1cccc(S(=O)(=O)N2CCOCC2)c1 ? -4.53

I have this molecule here, c1cnc2ccc(-n3ccnc3)cc2c1 , and I need its recorded inhibition. 22.4

What does the record list as inhibition for CCOc1cccc2cc(C(=O)N3CC(C)OC(C)C3)c(=O)oc12 (centres undefined) ? -2.83

---

target: (Lyso)-N-acylphosphatidylethanolamine lipase (Mus musculus); experiment: ABHD4 inhibitors, retest, confirmation, biochemical, fluorescence polarization, mouse (AID 720658); settings: purified mABHD4, FP-Rh probe fluorescence polarization; at 8.92 µM; stronger effect = higher value;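 further: 0% = wild-type ABHD4 with DMSO and 100% = catalytically dead S159A mutant with DMSO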
The other results are listed elsewhere or left out.
Outcome label depends on inhibition relative to 40%: at/above gives Criterion met, below gives Criterion not met.

Given the entry CCOC(=O)[C@H]1Nc2ccc(Cl)cc2[C@@H]2[C@H]1C1CC(c3ccccc31)N2C(=O)OCc1ccccc1 (stereo partly specified) , answer whether its inhibition meets or surpasses 40%. Criterion met

Threshold query (inhibition >= 40%) on CC(C)(C)C(=O)OCc1nc(-c2ccc(O)c(O)c2)cs1 Criterion not met

Answer whether inhibition of Cc1ccc(NC(=O)Cc2nc(COC(=O)C(C)NS(=O)(=O)c3ccc(C)cc3)cs2)cc1 (stereo unspecified) is greater than or equal to 40%. Criterion not met

Given CCc1ccc(-c2nn(-c3ccccc3)cc2CSC(=N)N)cc1 , state whether its inhibition is at least 40%. Criterion met

Exam item: decide whether the reported inhibition for O=[N+]([O-])c1cc(Br)c(O)c(/C=N/Nc2nc3ccccc3s2)c1 is at least 40%. Criterion met

Check if inhibition >= 40% (inclusive). Item: Oc1ccc(N=Cc2sc3ccccc3c2Cl)cc1 Criterion not met

Can CCOC(=O)C1=C(C)N=C2c3ccccc3C(=O)C2C1c1ccc(Br)cc1 (stereo unspecified) be said to have inhibition at or above 40%? Criterion met

Could you verify whether the entry Cc1cc(C(=O)N/N=C/c2ccc(O)c([N+](=O)[O-])c2)c(C)n1-c1ccc(F)cc1 shows inhibition of no less than 40%? Criterion met

Form field: inhibition at least 40%? Entry: CCc1ccccc1NC(=S)Nc1cc(OC)c(NC(=O)C(C)C)cc1OC Criterion not met

Could you tell me if the measured inhibition of COc1cc(/C=C2/C(=O)NN(c3cccc(Cl)c3)C2=O)cc(Br)c1O reaches 40% or more? Criterion not met

In plain terms: is recorded inhibition at least 40% for CC(C)c1ccc(CC(=O)N2CCC2(C)C(=O)NS(=O)(=O)c2ccc(C(C)(C)C)cc2)cc1 (stereo unspecified) ? Criterion met

Given Oc1ccc(CNc2ccccc2O)cc1 , state whether its inhibition is at least 40%. Criterion not met

Threshold query (inhibition >= 40%) on COc1cccc(/C=N/Nc2ccc(S(=O)(=O)Nc3ccccc3C(=O)O)cc2[N+](=O)[O-])c1O Criterion met

Check if inhibition >= 40% (inclusive). Item: CC(C)COC(=O)n1c(=O)oc2ccc(S(=O)(=O)N3CCCCC3)cc21 Criterion met

Record CCOC(=O)C1Nc2ccc(C(F)(F)F)cc2C2C=CCC12 (stereo unspecified) ; criterion: inhibition no lower than 40%. Met? Criterion not met

Decide: is the reported value of inhibition for O=C(O)c1ccc(N/N=C/c2cn(-c3ccccc3)nc2-c2cccs2)cc1 equal to or greater than 40%? Criterion met

In plain terms: is recorded inhibition at least 40% for O=[N+]([O-])c1cc(Cl)cc(/C=N/NC(=S)Nc2cc(S(=O)(=O)N3CCOCC3)ccc2Cl)c1O ? Criterion met

Check if inhibition >= 40% (inclusive). Item: O=Nc1c(O)cc(O)c2ccccc12 Criterion not met

State whether the measured inhibition reaches 40%, counting equality as reaching it, for O=C1C=CC(=O)N1c1ccc(N2CCCCC2)cc1 Criterion not met

Item CCC(CO)Oc1cc(NC(=O)c2cccc(F)c2)c2ncn(C(C)C)c2c1 (stereo unspecified) with inhibition of 40% or above? Criterion not met

---

biological target: Oxysterols receptor LXR-beta (Homo sapiens); assay: LXR agonists, Gal4 luciferase reporter, confirmation, counter-screen for hgDAF-12 agonist project, cell-based, luminescence, HEK293, H. glycines campaign (AID 743051); conditions: 24 h, at 6.8 µM, stronger effect = higher value
This is one part of the list.
Each entry below carries its recorded activation.
Just the number please, in %, no unit attached.

Some entries whose results are on file:
INSERT INTO results (chem_smiles, experimental_target, measure, measured_result) VALUES
  ('COC(=O)c1sc(NC(=O)c2ccc(OC)cc2OC)nc1C', 'Oxysterols receptor LXR-beta (Homo sapiens)', 'activation', 1.05),
  ('O=C(CCSc1ccccc1)N1CCN(c2ccccc2F)CC1', 'Oxysterols receptor LXR-beta (Homo sapiens)', 'activation', 0.48),
  ('Brc1ccc2nc(N3CCCC3)sc2c1', 'Oxysterols receptor LXR-beta (Homo sapiens)', 'activation', 0.64),
  ('CN(C)S(=O)(=O)c1ccc2oc(SCC(=O)Nc3ccccc3F)nc2c1', 'Oxysterols receptor LXR-beta (Homo sapiens)', 'activation', 0.66),
  ('Cc1ccc(NC(=O)c2cc3ccccc3o2)cc1', 'Oxysterols receptor LXR-beta (Homo sapiens)', 'activation', 0.74),
  ('N#CC1(Nc2ccc(-c3ccc(Cl)cc3)cc2)CCCC1', 'Oxysterols receptor LXR-beta (Homo sapiens)', 'activation', 0.34);

From here, focus on the item given below.
# activation lookup, item COc1ccc(Nc2ccc3ccccc3c2)cc1 0.53

---

target: Nuclear receptor coactivator 1 (Homo sapiens) (UniProt Q15788); experiment: SRC1 coactivator transcriptional activity inhibitors, confirmation, cell-based, luminescence, quadruplicate (AID 588820); conditions: HEK293 GAL4-SRC1 luciferase reporter, at 3.6 µM;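 further: 0% = DMSO wells and 100% = gossypol 36 µM treated wells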
Sequence (Q15788 whole entry, looked up, the tested form may be a part): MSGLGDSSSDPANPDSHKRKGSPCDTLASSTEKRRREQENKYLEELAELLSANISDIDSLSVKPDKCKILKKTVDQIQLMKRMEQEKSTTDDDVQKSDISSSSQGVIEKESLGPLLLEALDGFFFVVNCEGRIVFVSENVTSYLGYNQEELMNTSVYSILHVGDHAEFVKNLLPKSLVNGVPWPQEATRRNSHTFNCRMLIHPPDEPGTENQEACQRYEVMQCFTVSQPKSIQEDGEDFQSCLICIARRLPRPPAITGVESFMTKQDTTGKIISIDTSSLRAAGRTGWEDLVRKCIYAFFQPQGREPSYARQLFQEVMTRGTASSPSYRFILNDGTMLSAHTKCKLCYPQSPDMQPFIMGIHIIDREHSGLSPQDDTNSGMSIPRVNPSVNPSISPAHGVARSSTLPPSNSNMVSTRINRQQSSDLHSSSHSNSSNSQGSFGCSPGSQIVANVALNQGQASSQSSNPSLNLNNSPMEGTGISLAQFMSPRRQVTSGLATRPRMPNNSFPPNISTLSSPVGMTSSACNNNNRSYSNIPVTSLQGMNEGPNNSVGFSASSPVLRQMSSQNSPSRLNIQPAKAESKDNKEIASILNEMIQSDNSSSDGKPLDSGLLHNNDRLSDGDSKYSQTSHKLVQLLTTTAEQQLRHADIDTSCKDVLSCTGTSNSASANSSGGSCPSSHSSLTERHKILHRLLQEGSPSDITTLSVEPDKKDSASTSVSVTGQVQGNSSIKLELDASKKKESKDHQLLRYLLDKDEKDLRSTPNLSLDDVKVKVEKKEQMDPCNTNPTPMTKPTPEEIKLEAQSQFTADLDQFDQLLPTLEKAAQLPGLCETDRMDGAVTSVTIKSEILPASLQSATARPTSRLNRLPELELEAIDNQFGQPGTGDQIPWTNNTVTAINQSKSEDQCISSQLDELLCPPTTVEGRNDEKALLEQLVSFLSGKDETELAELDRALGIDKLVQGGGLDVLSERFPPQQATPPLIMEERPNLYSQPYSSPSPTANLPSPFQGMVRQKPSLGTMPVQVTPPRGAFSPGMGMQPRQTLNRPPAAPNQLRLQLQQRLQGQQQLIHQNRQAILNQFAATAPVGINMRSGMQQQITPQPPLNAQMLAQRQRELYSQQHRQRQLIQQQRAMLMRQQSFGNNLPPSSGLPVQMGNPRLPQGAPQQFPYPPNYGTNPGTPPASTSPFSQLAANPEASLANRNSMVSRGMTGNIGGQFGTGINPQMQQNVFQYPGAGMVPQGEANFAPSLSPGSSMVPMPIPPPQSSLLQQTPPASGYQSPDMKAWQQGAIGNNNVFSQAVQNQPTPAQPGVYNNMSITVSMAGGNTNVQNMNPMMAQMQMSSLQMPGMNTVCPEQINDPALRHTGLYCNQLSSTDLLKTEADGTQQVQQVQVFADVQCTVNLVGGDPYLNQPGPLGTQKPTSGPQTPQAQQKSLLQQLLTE
The source made the active and inactive calls.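 How the source made its calls: active means mean inhibition above 46.68%, the untreated control wells mean plus 3 SD; inactive means the rest.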
Outcome field: choose from true = active, false = inactive

// known answers, use as guide
INSERT INTO assay_data (chem_smiles, class_label) VALUES
  ('Cc1cc(C)n(-c2ccc(C(=O)Nc3ccc(C)c(S(=O)(=O)N4CCOCC4)c3)cc2)n1', 'false'),
  ('Cc1cc([N+](=O)[O-])nn1Cc1ccc(C(=O)N/N=C/c2ccc(O)cc2O)cc1', 'true');

Kindly provide the recorded test outcome for the following compound: CC(C)(C)c1cc(C(=O)N/N=C/c2ccc(O)cc2)n(-c2ccccc2)n1 false

Please let me know the test result on file for O=S(=O)(NCC1CN(S(=O)(=O)c2c(F)cccc2F)C1)c1ccc2c(c1)OCCO2 . false

Which outcome did this test record for the compound NC(N)=N/N=C/c1ccc(Cl)c([N+](=O)[O-])c1 ? false

---

molecular target: Nuclear receptor subfamily 5 group A member 2 (Homo sapiens) (UniProt O00482); experiment: LRH-1 (NR5A2) inverse agonists, retest, confirmation, cell-based, luminescence (AID 651613); details: cell-based LRH-1 luciferase reporter, inverse agonism; at 3.6 µM;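 further: HEK293T cells co-transfected with LRH-1 and StAR promoter luciferase reporter; 0% = vehicle wells and 100% = parental cells lacking receptor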
Sequence (O00482 whole entry, looked up): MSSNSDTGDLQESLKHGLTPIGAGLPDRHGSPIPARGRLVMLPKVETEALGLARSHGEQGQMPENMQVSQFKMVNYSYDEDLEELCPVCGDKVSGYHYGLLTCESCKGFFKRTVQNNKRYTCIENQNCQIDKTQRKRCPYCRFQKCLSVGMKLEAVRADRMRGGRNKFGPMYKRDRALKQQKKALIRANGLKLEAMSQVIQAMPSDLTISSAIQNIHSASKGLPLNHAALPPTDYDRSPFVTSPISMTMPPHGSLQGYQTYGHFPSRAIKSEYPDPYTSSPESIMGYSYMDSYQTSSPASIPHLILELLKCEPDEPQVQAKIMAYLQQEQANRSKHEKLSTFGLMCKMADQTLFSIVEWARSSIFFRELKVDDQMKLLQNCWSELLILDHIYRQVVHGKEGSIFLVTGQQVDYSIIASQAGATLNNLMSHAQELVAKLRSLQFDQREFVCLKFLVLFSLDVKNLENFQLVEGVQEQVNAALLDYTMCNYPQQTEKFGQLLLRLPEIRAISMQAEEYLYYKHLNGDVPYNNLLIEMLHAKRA
Calls of active or inactive are those of the source. Cut-off read from the data, not from the text of the source: active = inhibition above about 42%; inactive = the rest.
Allowed answers: active, inactive

INSERT INTO measurements (compound, class_label) VALUES
  ('O=c1c2ccc(Cl)cc2nc(-c2cccc(C(F)(F)F)c2)n1O', 'active');

State the result this test recorded for CCCc1ccc(-c2ccc(/C=C/C(=O)O)cc2)nc1 . active

What was the test verdict on Cc1scc(C(=O)N/N=C/c2ccc([N+](=O)[O-])o2)c1C ? active

Could you kindly confirm the outcome this assay logged for NC(=S)N/N=C/c1ccc(-c2ccc([N+](=O)[O-])cc2)o1 ? active

# outcome recorded in this test, key = Cc1cc(C(=O)CSc2nnnn2C)c(C)n1CCc1ccc(F)cc1 active

Field: outcome | Entry: COc1ccccc1-n1c(SCC(=O)Nc2ccc(F)cc2)nc2c(c1=O)SCC2 active

Any idea what this test logged for Cc1cc(O)c(NC(=O)c2cc([N+](=O)[O-])ccc2Cl)cc1C ? active

Status in this test for O=[N+]([O-])c1ccc(/C=N/n2c(CO)nc3ccccc32)s1 ? active

Entry COc1ccc(NC(=O)C2Cc3c(-c4ccc5c(c4)OCO5)ccnc3O2)cc1OC (stereo not drawn) : call = ? active

Check the results log: what was the call for O=C(NN=Cc1ccccc1O)NN=Cc1ccccc1O ? active
